Taken from the RNAGym collection of RNA variant scans (doi:10.1126/science.aae0568).

B1: tRNA (parent)
chain: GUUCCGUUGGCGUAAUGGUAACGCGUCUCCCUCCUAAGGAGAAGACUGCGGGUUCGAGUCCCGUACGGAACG

Variants of: B1
Assay: yeast fitness relative to wild type (ratio to wild type); higher = fitter; tRNA-Arg(CCU), competitive growth, 37 C, YPD
Variants at the floor of the assay were thinned out.
The following variants are listed with their measured yeast fitness values.
assay endpoint: yeast fitness

> print(dat)
                   variant.label  assay.endpoint  bound.sign  result.value
1            G25A C29U G51C A70U   yeast fitness           ≤           0.5
2                      G12C A43G   yeast fitness           =         0.694
3                      A42G C46G   yeast fitness           =         0.886
4                      C60A A69G   yeast fitness           =          0.56
5  C11G G12C A20G A43G A45C A69U   yeast fitness           ≤           0.5
